Counter-ions that a name gives are not always drawn.
REPORTED_ENDPOINT: MIC
Include the unit right after the number.

Known value: Escherichia coli B (Ennis) MIC of the compound COC(=O)CC(C)C(=O)OC1C(OC2C(CC=O)CC(C)C(OC3CCC(N(C)C)C(C)O3)/C=C/C=C/CC(C)OC(=O)CC(O)C2OC)OC(C)C(OC2CC(C)(O)C(O)C(C)O2)C1N(C)C (stereo not shown) equals 250 µg/mL

Known value: Escherichia coli B (Ennis) MIC of the compound CCOC(=O)CCC(=O)OC1C(OC2C(CC=O)CC(C)C(OC3CCC(N(C)C)C(C)O3)/C=C/C=C/CC(C)OC(=O)CC(O)C2OC)OC(C)C(OC2CC(C)(O)C(O)C(C)O2)C1N(C)C (stereo not shown) [A, 2'-ethyl succinate of spiramycin I] equals 62 µg/mL

Known value: Escherichia coli B (Ennis) MIC of the compound COC1C(O)CC(=O)OC(C)C/C=C/C=C/C(OC2CCC(N(C)C)C(C)O2)C(C)CC(CC=O)C1OC1OC(C)C(OC2CC(C)(O)C(O)C(C)O2)C(N(C)C)C1OC(=O)CCC(=O)Oc1ccccc1 (stereo not shown) [K, 2'-phenyl succinate of spiramycin I] equals 250 µg/mL

Known value: Escherichia coli B (Ennis) MIC of the compound CCCOC(=O)CCC(=O)OC1C(OC2C(CC=O)CC(C)C(OC3CCC(N(C)C)C(C)O3)/C=C/C=C/CC(C)OC(=O)CC(O)C2OC)OC(C)C(OC2CC(C)(O)C(O)C(C)O2)C1N(C)C (stereo not shown) [D, 2'-propyl succinate of spiramycin I] equals 250 µg/mL

Known value: Escherichia coli B (Ennis) MIC of the compound COC(=O)CCCC(=O)OC1C(OC2C(CC=O)CC(C)C(OC3CCC(N(C)C)C(C)O3)/C=C/C=C/CC(C)OC(=O)CC(O)C2OC)OC(C)C(OC2CC(C)(O)C(O)C(C)O2)C1N(C)C (stereo not shown) [E, 2'-methyl glutarate of spiramycin I] equals 125 µg/mL

Known value: Escherichia coli B (Ennis) MIC of the compound COC1C(O)CC(=O)OC(C)C/C=C/C=C/C(OC2CCC(N(C)C)C(C)O2)C(C)CC(CC=O)C1OC1OC(C)C(OC2CC(C)(O)C(O)C(C)O2)C(N(C)C)C1OC(=O)CCC(=O)OC1CCCCC1 (stereo not shown) [H, 2'-cyclohexyl succinate of spiramycin I] equals 250 µg/mL

Known value: Escherichia coli B (Ennis) MIC of the compound COC1C(O)CC(=O)OC(C)C/C=C/C=C/C(OC2CCC(N(C)C)C(C)O2)C(C)CC(CC=O)C1OC1OC(C)C(OC2CC(C)(O)C(O)C(C)O2)C(N(C)C)C1OC(=O)CCC(=O)OCCc1ccccc1 (stereo not shown) equals 250 µg/mL

Known value: Escherichia coli B (Ennis) MIC of the compound COC1C(O)CC(=O)OC(C)C/C=C/C=C/C(OC2CCC(N(C)C)C(C)O2)C(C)CC(CC=O)C1OC1OC(C)C(OC2CC(C)(O)C(O)C(C)O2)C(N(C)C)C1OC(=O)CCC(=O)OC(C)(C)C (stereo not shown) equals 125 µg/mL

Known value: Escherichia coli B (Ennis) MIC of the compound COC(=O)/C=C/C(=O)OC1C(OC2C(CC=O)CC(C)C(OC3CCC(N(C)C)C(C)O3)/C=C/C=C/CC(C)OC(=O)CC(O)C2OC)OC(C)C(OC2CC(C)(O)C(O)C(C)O2)C1N(C)C (stereo not shown) [F, 2'-methyl fumarate of spiramycin I] equals 250 µg/mL

Known value: Escherichia coli B (Ennis) MIC of the compound CCOC(=O)CCCC(=O)OC1C(OC2C(CC=O)CC(C)C(OC3CCC(N(C)C)C(C)O3)/C=C/C=C/CC(C)OC(=O)CC(O)C2OC)OC(C)C(OC2CC(C)(O)C(O)C(C)O2)C1N(C)C (stereo not shown) [B, 2'-ethyl glutarate of spiramycin I] equals 62 µg/mL

* * *

Assign MIC to each entry below.
- System: Escherichia coli B (Ennis)
- PROTOCOL_DESCRIPTION: In vitro minimum inhibitory concentration, E. coli B (Ennis) (Test 3)
- Assay type: cell-based
- SETTINGS: Escherichia coli; tryptone soya broth, approximately 10^5 organisms per tube, 37° C.
# value in mg/L; strip the unit string

Form: compound = COC(=O)CCC(=O)OC1C(OC2C(CC=O)CC(C)C(OC3CCC(N(C)C)C(C)O3)/C=C/C=C/CC(C)OC(=O)CC(O)C2OC)OC(C)C(OC2CC(C)(O)C(O)C(C)O2)C1N(C)C (stereo not shown) [C, 2'-methyl succinate of spiramycin I] ; MIC = 250

Form: compound = COC1C(O)CC(=O)OC(C)C/C=C/C=C/C(OC2CCC(N(C)C)C(C)O2)C(C)CC(CC=O)C1OC1OC(C)C(OC2CC(C)(O)C(O)C(C)O2)C(N(C)C)C1OC(=O)CCC(=O)SC (stereo not shown) [G] ; MIC = 500

Form: compound = CCOC(=O)CC(=O)OC1C(OC2C(CC=O)CC(C)C(OC3CCC(N(C)C)C(C)O3)/C=C/C=C/CC(C)OC(=O)CC(O)C2OC)OC(C)C(OC2CC(C)(O)C(O)C(C)O2)C1N(C)C (stereo not shown) [J, 2'-ethyl malonate of spiramycin I] ; MIC = 250

Form: compound = COC1C(O)CC(=O)OC(C)C/C=C/C=C/C(OC2CCC(N(C)C)C(C)O2)C(C)CC(CC=O)C1OC1OC(C)C(OC2CC(C)(O)C(O)C(C)O2)C(N(C)C)C1OC(=O)CCC(=O)OC(C)C (stereo not shown) [O, 2'-isopropyl succinate of spiramycin I] ; MIC = 125

* * *

Assign MIC to each entry below.
Structures can show the parent of a compound that is named as a salt.
# value in µg/mL; strip the unit string

Known value: Staphylococcus aureus (Oxford) MIC of the compound COC1C(O)CC(=O)OC(C)C/C=C/C=C/C(OC2CCC(N(C)C)C(C)O2)C(C)CC(CC=O)C1OC1OC(C)C(OC2CC(C)(O)C(O)C(C)O2)C(N(C)C)C1OC(=O)CCC(=O)SC (stereo not drawn) [G] equals 2.5

Known value: Staphylococcus aureus (Oxford) MIC of the compound COC(=O)/C=C/C(=O)OC1C(OC2C(CC=O)CC(C)C(OC3CCC(N(C)C)C(C)O3)/C=C/C=C/CC(C)OC(=O)CC(O)C2OC)OC(C)C(OC2CC(C)(O)C(O)C(C)O2)C1N(C)C (stereo not drawn) [F, 2'-methyl fumarate of spiramycin I] equals 2.5

Known value: Staphylococcus aureus (Oxford) MIC of the compound COC1C(O)CC(=O)OC(C)C/C=C/C=C/C(OC2CCC(N(C)C)C(C)O2)C(C)CC(CC=O)C1OC1OC(C)C(OC2CC(C)(O)C(O)C(C)O2)C(N(C)C)C1OC(=O)CCC(=O)OCCc1ccccc1 (stereo not drawn) [M] equals 2.5

Known value: Staphylococcus aureus (Oxford) MIC of the compound CCCOC(=O)CCC(=O)OC1C(OC2C(CC=O)CC(C)C(OC3CCC(N(C)C)C(C)O3)/C=C/C=C/CC(C)OC(=O)CC(O)C2OC)OC(C)C(OC2CC(C)(O)C(O)C(C)O2)C1N(C)C (stereo not drawn) [D, 2'-propyl succinate of spiramycin I] equals 2.5

Known value: Staphylococcus aureus (Oxford) MIC of the compound CCOC(=O)CC(=O)OC1C(OC2C(CC=O)CC(C)C(OC3CCC(N(C)C)C(C)O3)/C=C/C=C/CC(C)OC(=O)CC(O)C2OC)OC(C)C(OC2CC(C)(O)C(O)C(C)O2)C1N(C)C (stereo not drawn) [J, 2'-ethyl malonate of spiramycin I] equals 5

Known value: Staphylococcus aureus (Oxford) MIC of the compound COC(=O)CC(C)C(=O)OC1C(OC2C(CC=O)CC(C)C(OC3CCC(N(C)C)C(C)O3)/C=C/C=C/CC(C)OC(=O)CC(O)C2OC)OC(C)C(OC2CC(C)(O)C(O)C(C)O2)C1N(C)C (stereo not drawn) [Compound L] equals 2.5

Known value: Staphylococcus aureus (Oxford) MIC of the compound COC1C(O)CC(=O)OC(C)C/C=C/C=C/C(OC2CCC(N(C)C)C(C)O2)C(C)CC(CC=O)C1OC1OC(C)C(OC2CC(C)(O)C(O)C(C)O2)C(N(C)C)C1OC(=O)CCC(=O)OC1CCCCC1 (stereo not drawn) [H, 2'-cyclohexyl succinate of spiramycin I] equals 2.5

Known value: Staphylococcus aureus (Oxford) MIC of the compound CCOC(=O)CCCC(=O)OC1C(OC2C(CC=O)CC(C)C(OC3CCC(N(C)C)C(C)O3)/C=C/C=C/CC(C)OC(=O)CC(O)C2OC)OC(C)C(OC2CC(C)(O)C(O)C(C)O2)C1N(C)C (stereo not drawn) [B, 2'-ethyl glutarate of spiramycin I] equals 1.25

Known value: Staphylococcus aureus (Oxford) MIC of the compound COC(=O)CCCC(=O)OC1C(OC2C(CC=O)CC(C)C(OC3CCC(N(C)C)C(C)O3)/C=C/C=C/CC(C)OC(=O)CC(O)C2OC)OC(C)C(OC2CC(C)(O)C(O)C(C)O2)C1N(C)C (stereo not drawn) [E, 2'-methyl glutarate of spiramycin I] equals 2.5

# credit: patent US4174391A
